# Method summary: small-molecule microarray binders of probe aEGFR, primary screen, biochemical, biotinylated probe, 635/667 nm fluorescence (AID 1097);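 note: probe is a biotinylated anti-EGFR antibody binding compounds printed on slides; score combines fluorescence near 667 nm and signal to noise of each spot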
# Measurement parameters: higher = more signal
The entries below come with measured composite z-score values attached.

# Compound, composite z-score
measured = [
    ("O=C/C=C/c1ccccc1Cl", -0.18),
    ("C=C(CCCC)/C(=C/C[C@@H](OC(=O)c1ccncc1)c1ccc(CO)o1)c1cnc2ccccc2c1", 0.0071),
    ("Cc1ccc(N2C(=O)c3ccccc3[C@@H](C(=O)NCC(F)(F)F)[C@@H]2c2ccc(CO)cc2)nc1", -0.157),
    ("CO[C@H]1COC(=O)CC=C[C@H](C)[C@@H](OC)COC(=O)[C@H](Cc2ccccc2)NC(=O)CC=C[C@@H]1C", -0.172),
    ("O=C/C=C/c1ccc(/C=C/c2ccccc2)cc1", -0.225),
    ("CC(C)=C1C(=O)C(c2ccccc2)=C2CN3C(=O)N(CCc4ccccc4)C(=O)[C@]3(Cc3ccccc3)[C@H]21", -0.138),
    ("COC(=O)Cn1c(C(=O)N2CCCC2)cc2c1C[C@H]1CN(C(=O)c3ccccc3)[C@@](Cc3ccc(OC)cc3)(C(=O)OC)[C@@H]21", 0.434),
    ("O=C1c2ccccc2[C@](Cc2ccccc2I)(C(=O)O)[C@H](c2ccc(CO)cc2)N1C1CCCCC1", 0.252),
    ("Cc1ccc(S[C@]2(C(=O)NCCCN(C)C)CC(=O)N(Cc3ccccc3)[C@@H]2c2ccc(CO)cc2I)cc1", -0.13),
    ("COc1ccc(CCN2C(=O)[C@@]3(c4ccc([N+](=O)[O-])cc4)CC(=O)N(CC45CC6CC(CC(C6)C4)C5)[C@@H]3c3ccc(CO)cc32)cc1", -0.109),
    ("COC(=O)c1ccc(C#CC(NP(=O)(c2ccccc2)c2ccccc2)c2ccccc2)cc1 (configuration not stated)", 0.093),
    ("CO[C@H]1COC(=O)[C@H](C)COC(=O)[C@H](Cc2ccccc2)NC(=O)CC=C[C@H]1C", -0.139),
    ("C=CC[C@]1(C(N)=O)N=C(c2ccc(OCCCO)cc2)O[C@H]1c1ccccc1CN=[N+]=[N-]", 0.0183),
    ("C[N+](C)(C)CCCC[C@@H]1NC(=O)[C@H]2C[C@@H](C(=O)NCc3ccc(F)cc3)[C@@H](c3cccc(OCCO)c3)N2C1=O", -0.118),
    ("C[C@]1(C(=O)NCCN2CCOCC2)c2ccccc2C(=O)N(Cc2ccccc2)[C@H]1c1ccc(CO)cc1", -0.23),
    ("CCOC(=O)C[C@H]1[C@H](OC(=O)c2ccccc2-c2ccccc2)[C@@H](NC(=O)C2CCCCC2)c2cc(OCCCO)ccc2N1C(=O)c1ccccc1", 0.232),
    ("C=CCc1cccc([C@H]2N[C@H](C(=O)O)CC[C@@H]2C)c1", -0.0828),
]

====

# Method summary: small-molecule microarray binders of probe aXIP, primary screen, biochemical, NeuroSMM set, 635/667 nm fluorescence (AID 1119);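 note: probe is the protein aXip251-270 applied at 1 µg/mL to compound-printed slides; binding of probe to printed compounds measured as 667 nm fluorescence plus signal to noise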
# Measurement parameters: higher = more signal, called active from +8 up or from −8 down
Classify as follows. Reported composite Z-score greater than or equal to 0.2: class 1. Reported composite Z-score below: class 0.

# Compound, Class
measured = [
    ("N#Cc1ccc(NN2C(C(O)CCc3ccccc3)C=CC3C(=O)N(c4ccccc4)C(=O)C32)cc1 (stereo unspecified)", "class 1"),
    ("COc1cc2c(cc1OC)CN(C(=O)[C@H]1[C@@H]3C(=O)O[C@@H](c4ccccc4)[C@@H](c4ccccc4)N3[C@@H](c3ccc(O)cc3)[C@]13C(=O)Nc1ccc(C#CC4(O)CCCCCC4)cc13)CC2", "class 1"),
    ("COc1ccc(CCNC(=O)[C@@]2(c3ccc([N+](=O)[O-])cc3)CC(=O)N(C(C)C)[C@@H]2c2ccc(CO)cc2)cc1", "class 1"),
    ("COCCOC(=O)N1C(=O)[C@@]2(c3cc(C#CCCO)ccc31)[C@H](c1ccc(O)cc1)N1[C@H](c3ccccc3)[C@H](c3ccccc3)OC(=O)[C@H]1[C@@H]2C(=O)Nc1nc2ccccc2s1", "class 0"),
    ("C=CC[C@]1(C(=O)NCC(O)CO)N=C(c2ccc(OCCCO)cc2)O[C@H]1c1ccccc1 (stereo partly specified)", "class 1"),
    ("Cc1ccc(S(=O)(=O)N2[C@@H](c3ccccc3)C(C(=O)O)=CC[C@H]2c2ccccc2)cc1", "class 1"),
    ("CC(C)(C)OC(=O)CC[C@]1(C(=O)N2CCCCC2)N=C(c2ccc(OCCCO)cc2)O[C@H]1c1ccccc1", "class 0"),
    ("COc1cc2c(cc1OC)CN(C(=O)[C@H]1[C@@H]3C(=O)O[C@@H](c4ccccc4)[C@@H](c4ccccc4)N3[C@@H](c3ccccc3OCCO)[C@]13C(=O)Nc1ccc(C#CC4(O)CCCCCC4)cc13)CC2", "class 1"),
    ("CC(C)[Si]1(C(C)C)O[C@@H](c2ccccc2)c2cc(C3CC3)nc(-c3ccc(Oc4ccccc4)cc3)c21", "class 0"),
    ("O=C1C[C@@](C(=O)NCCN2CCOCC2)(c2ccc([N+](=O)[O-])cc2)[C@@H](c2ccc(CO)cc2)N1C1CCCCC1", "class 0"),
    ("Cc1ccc(S(=O)(=O)N[C@H]2COC(=O)CC=C[C@H](C)COC(=O)N[C@@H](C)C(=O)CC=C[C@@H]2C)cc1", "class 0"),
    ("COc1ccc([Si](C)(C)[C@@H]2[C@@H](CC(=O)N(CCO)Cc3ccccc3)O[C@]3(C(=O)N(Cc4cccc(N5CCC5=O)c4)c4ccccc43)[C@H]2C)cc1", "class 0"),
    ("CC(C)[C@H]1NC(=O)[C@@]23C(=O)N[C@@H](Cc4ccccc4)C2[C@H](C)[C@@]2(C)O[C@H]2C3/C=C/C/C=C\\CNC(=O)[C@H](C)NC1=O (stereo partly specified)", "class 0"),
    ("C[C@@H]1CC[C@H]2C(=O)N3[C@@H](CC[C@@H](C)[C@@H]3c3cccc(N4CCOCC4)c3)C(=O)N2[C@H]1c1cccc(N2CCOCC2)c1", "class 0"),
    ("C=C(COC)/C(=C/C[C@@H](OC(C)=O)c1cccc(OCCO)c1)c1cc(C(=O)OC)ccc1OC", "class 0"),
    ("COc1ccc(-c2cc3c(c(-c4ccccc4)n2)[Si](C(C)C)(C(C)C)O[C@H]3c2ccccc2)cn1", "class 0"),
    ("CCOC(=O)C[C@H]1[C@H](OC(=O)c2ccccc2-c2ccccc2)[C@@H](NC(=O)c2ccc(-c3ccccc3)cc2)c2cc(OCCCO)ccc2N1C(=O)Cc1ccc(OC)cc1", "class 0"),
    ("CO[C@H]1COC(=O)[C@H](CCSC)NC(=O)CC=C[C@@H](C)COC(=O)[C@@H](OCc2ccccc2)C=C[C@@H]1C", "class 0"),
    ("CCC(=O)[C@]12O[C@@]3([C@@H]4C(=O)OCC[C@@H]41)N(CC)C(C)=C(C(=O)OC)[C@@H](c1ccccc1)N3C2=O", "class 0"),
    ("CO[C@H]1COC(=O)[C@@H](C)NC(=O)CC=C[C@@H](C)[C@H](OC)COC(=O)CC=C[C@@H]1C", "class 1"),
    ("COCCOC(=O)N1C(=O)[C@@]2(c3cc(C#CCNC(N)=O)ccc31)[C@H](c1ccccc1OCCO)N1[C@H](c3ccccc3)[C@H](c3ccccc3)OC(=O)[C@H]1[C@@H]2C(=O)NC[C@H](O)c1ccccc1", "class 1"),
    ("C=C(COC)/C(=C/C[C@@H](OC(=O)c1ccncc1)c1ccc(OCCO)cc1)c1cc(C(=O)OC)ccc1OC", "class 1"),
    ("O=C1O[C@H](c2ccccc2)[C@H](c2ccccc2)N2[C@H]1[C@@H](C(=O)NC[C@H](O)c1ccccc1)[C@]1(C(=O)Nc3ccc(C#CC4(O)CCCCCC4)cc31)[C@H]2c1ccc(OCCO)cc1", "class 1"),
    ("Cc1ccc(S[C@]2(C(=O)NC(C)C)CC(=O)N(Cc3cc(C(F)(F)F)cc(C(F)(F)F)c3)[C@@H]2c2ccc(CO)cc2I)cc1", "class 0"),
    ("COCCCNC(=O)[C@@H]1c2ccccc2C(=O)N(CC23CC4CC(CC(C4)C2)C3)[C@H]1c1ccc(CO)cc1", "class 1"),
]
